Biological target: Serine/threonine-protein kinase 17A (Homo sapiens) (UniProt Q9UEE5)
Sequence (Q9UEE5 whole entry): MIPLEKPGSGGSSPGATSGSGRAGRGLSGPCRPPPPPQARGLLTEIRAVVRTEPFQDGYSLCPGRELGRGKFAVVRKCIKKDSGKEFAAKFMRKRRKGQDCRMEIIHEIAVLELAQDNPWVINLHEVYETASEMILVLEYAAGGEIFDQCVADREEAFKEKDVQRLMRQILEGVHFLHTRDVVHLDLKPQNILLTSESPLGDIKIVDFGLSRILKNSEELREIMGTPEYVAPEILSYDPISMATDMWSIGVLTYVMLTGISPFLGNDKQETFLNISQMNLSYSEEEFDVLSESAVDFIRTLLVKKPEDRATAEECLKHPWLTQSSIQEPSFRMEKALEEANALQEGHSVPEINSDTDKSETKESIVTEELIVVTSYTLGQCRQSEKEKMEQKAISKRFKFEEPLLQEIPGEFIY
Assay: Binding affinity to DRAK1 assessed as change in thermal denaturation at 10 uM by thermal stability shift assay
endpoint: ΔTm (°C)

Illustrative cases are given below, each with its answer.
INSERT INTO assay_data (compound, endpoint, reading) VALUES
  ('Cn1c2c(c3ccc(Cl)c(Cl)c31)C(CN)C(C)(C)NC2=O (racemic)', 'ΔTm', 7.5),
  ('Cn1c2c(c3ccc(Cl)c(Cl)c31)C(C#N)C1(CCNCC1)NC2=O (racemic)', 'ΔTm', 4.3),
  ('Cn1c2c(c3ccc(Cl)c(Cl)c31)C(C#N)C1(CCCC1)NC2=O (configuration not stated)', 'ΔTm', 2),
  ('Cn1c2c(Cl)c(Cl)ccc2c2cn[nH]c(=O)c21', 'ΔTm', 3.5),
  ('CCN1CCC2(CC1)NC(=O)c1c(c3ccc(Cl)c(Cl)c3n1C)C2C#N (racemic)', 'ΔTm', 1.6);

[a] N#CC1c2c([nH]c3c(Cl)c(Cl)ccc23)C(=O)NC12CCCCC2 (racemic)
[b] CC(=O)NCC1c2c(n(C)c3c(Cl)c(Cl)ccc23)C(=O)NC1(C)C (racemic)
Pick one: a or b . Which one has the lower reported ΔTm? Mark your answer with the label of the selected entry.
b
(b: 0.9 °C, a: 2.2 °C)

* * *

Biological target: BMP-2-inducible protein kinase (Homo sapiens) (UniProt Q9NSY1)
Sequence (Q9NSY1 whole entry, looked up): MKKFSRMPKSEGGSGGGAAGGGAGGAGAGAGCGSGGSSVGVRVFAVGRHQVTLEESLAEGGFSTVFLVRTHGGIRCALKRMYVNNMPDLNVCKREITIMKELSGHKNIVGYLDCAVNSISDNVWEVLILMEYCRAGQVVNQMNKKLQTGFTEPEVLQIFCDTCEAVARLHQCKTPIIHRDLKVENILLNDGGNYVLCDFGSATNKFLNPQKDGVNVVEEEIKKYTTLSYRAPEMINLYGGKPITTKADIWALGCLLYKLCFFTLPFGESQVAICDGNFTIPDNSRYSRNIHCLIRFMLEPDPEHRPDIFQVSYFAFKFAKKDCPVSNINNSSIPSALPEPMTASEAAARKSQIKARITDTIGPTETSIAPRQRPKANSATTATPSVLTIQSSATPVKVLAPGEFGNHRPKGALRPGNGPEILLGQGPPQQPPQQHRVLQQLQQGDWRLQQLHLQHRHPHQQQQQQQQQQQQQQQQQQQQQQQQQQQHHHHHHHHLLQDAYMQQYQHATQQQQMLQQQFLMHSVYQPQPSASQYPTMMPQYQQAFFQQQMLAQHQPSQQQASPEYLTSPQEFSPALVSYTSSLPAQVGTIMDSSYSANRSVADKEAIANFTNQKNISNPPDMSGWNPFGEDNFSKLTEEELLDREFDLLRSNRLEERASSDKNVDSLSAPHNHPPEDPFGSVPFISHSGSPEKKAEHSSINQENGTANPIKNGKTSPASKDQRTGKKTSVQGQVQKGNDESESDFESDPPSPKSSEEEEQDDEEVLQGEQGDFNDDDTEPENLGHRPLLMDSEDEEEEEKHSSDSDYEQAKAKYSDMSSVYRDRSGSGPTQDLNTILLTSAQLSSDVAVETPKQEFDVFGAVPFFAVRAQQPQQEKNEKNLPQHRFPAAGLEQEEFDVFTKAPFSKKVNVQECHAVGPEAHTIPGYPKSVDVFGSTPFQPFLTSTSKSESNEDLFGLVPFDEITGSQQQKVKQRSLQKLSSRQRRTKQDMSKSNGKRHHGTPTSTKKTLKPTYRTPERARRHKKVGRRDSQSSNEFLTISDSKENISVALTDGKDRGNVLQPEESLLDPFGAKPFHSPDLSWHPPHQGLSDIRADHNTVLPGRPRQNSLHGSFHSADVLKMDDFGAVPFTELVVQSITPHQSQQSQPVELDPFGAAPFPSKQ
Assay: Binding affinity to BIKE assessed as change in thermal denaturation at 10 uM by thermal stability shift assay
endpoint: ΔTm (°C)

Illustrative cases are given below, each with its answer.
INSERT INTO measurements (molecule, reading) VALUES
  ('Cn1c2c(c3ccc(Cl)c(Cl)c31)C(C#N)C1(CCNCC1)NC2=O (racemic)', 1),
  ('CN1CCC2(CC1)NC(=O)c1c(c3ccc(Cl)c(Cl)c3n1C)C2C#N (racemic)', 0.8),
  ('Cn1c2c(c3ccc(Cl)c(Cl)c31)C(CN)C(C)(C)NC2=O (racemic)', 1.7);

[1] N#CC1c2c([nH]c3c(Cl)c(Cl)ccc23)C(=O)NC12CCCCC2 (racemic)
[2] Cn1c2c(Cl)c(Cl)ccc2c2cc(N)[nH]c(=O)c21
Pick one: 1 or 2 . Which one has the lower reported ΔTm? Mark your answer with the label of the selected entry.
1
(1: 1.1 °C, 2: 5.2 °C)

* * *

Target: Serine/threonine-protein kinase 33 (Homo sapiens) (UniProt Q9BYT3)
Sequence (Q9BYT3 whole entry, looked up): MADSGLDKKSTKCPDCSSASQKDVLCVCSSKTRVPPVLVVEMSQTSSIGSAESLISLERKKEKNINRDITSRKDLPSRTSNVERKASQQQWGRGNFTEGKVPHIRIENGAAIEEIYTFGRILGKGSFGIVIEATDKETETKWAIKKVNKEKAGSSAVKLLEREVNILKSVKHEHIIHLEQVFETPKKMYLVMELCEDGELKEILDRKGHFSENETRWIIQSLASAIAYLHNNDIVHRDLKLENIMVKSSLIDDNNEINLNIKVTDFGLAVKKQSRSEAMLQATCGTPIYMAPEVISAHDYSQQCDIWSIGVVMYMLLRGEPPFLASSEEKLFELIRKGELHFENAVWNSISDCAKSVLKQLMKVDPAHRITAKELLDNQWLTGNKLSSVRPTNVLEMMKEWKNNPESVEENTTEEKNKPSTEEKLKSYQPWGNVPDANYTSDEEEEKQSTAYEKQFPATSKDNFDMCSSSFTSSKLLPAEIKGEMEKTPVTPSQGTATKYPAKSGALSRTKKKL
Assay: Binding affinity to STK33 assessed as change in thermal denaturation at 10 uM by thermal stability shift assay
endpoint: ΔTm (°C)

Illustrative cases are given below, each with its answer.
INSERT INTO measurements (compound, reading) VALUES
  ('Cn1c2c(c3ccccc31)C(C#N)C(C)(C)NC2=O (stereo not given)', 1),
  ('CC(=O)NCC1c2c(n(C)c3c(Cl)c(Cl)ccc23)C(=O)NC1(C)C (racemic)', 0.3),
  ('CN1CCC2(CC1)NC(=O)c1c(c3ccc(Cl)c(Cl)c3n1C)C2C#N (racemic)', 2.2),
  ('CCN1CCC2(CC1)NC(=O)c1c(c3ccc(Cl)c(Cl)c3n1C)C2C#N (racemic)', 2.1),
  ('Cn1c2c(Cl)c(Cl)ccc2c2cc[nH]c(=O)c21', 2.3);

[P] Cn1c2c(Cl)c(Cl)ccc2c2cn[nH]c(=O)c21
[Q] Cn1c2c(c3ccc(Cl)c(Cl)c31)C(C#N)C(C)(C)NC2=O (stereo not given)
Pick one: P or Q . Which one has the lower reported ΔTm? Mark your answer with the label of the selected entry.
P
(P: 1.2 °C, Q: 2.2 °C)

Origin of measurements: ChEMBL document CHEMBL1944596
